List of IC50 tested on TEM-1 (Escherichia coli).
Sequence (P62593 24-286 limits assumed): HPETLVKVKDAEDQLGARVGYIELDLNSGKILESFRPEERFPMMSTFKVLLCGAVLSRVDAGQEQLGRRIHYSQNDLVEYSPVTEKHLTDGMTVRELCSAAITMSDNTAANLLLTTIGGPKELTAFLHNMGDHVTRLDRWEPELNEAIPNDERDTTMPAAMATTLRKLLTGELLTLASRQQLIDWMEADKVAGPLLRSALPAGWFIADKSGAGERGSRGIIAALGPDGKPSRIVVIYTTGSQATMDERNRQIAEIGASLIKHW

Below, each entry is followed by its recorded IC50 result.
Request: Report IC50 on TEM-1 (Escherichia coli) for this entry: `O=C(c1ccccc1)C1CCN(C(=O)CN2C(=O)c3ccccc3C2=O)CC1`
Result: 0.449 nM

Request: Report IC50 on TEM-1 (Escherichia coli) for this entry: `O=C(O)c1ccccc1C(=O)N1CCN(c2nc(-c3ccccc3)ns2)CC1`
Result: 0.634 nM

***
Request: Report IC50 on TEM-1 (Escherichia coli) for this entry: `O=C(CN1C(=O)c2ccccc2S1(=O)=O)c1ccc(O)c(O)c1`
Result: 0.726 nM

###

Catalogue of Km or Ki values
# Tgt: NDM-1 (Klebsiella pneumoniae, UniProt C7C422)
# Construct: made in house; host or cells: E. coli (DH5 and BL21(DE3) named)
# Sequence (C7C422 29-270, looked up, species assumed): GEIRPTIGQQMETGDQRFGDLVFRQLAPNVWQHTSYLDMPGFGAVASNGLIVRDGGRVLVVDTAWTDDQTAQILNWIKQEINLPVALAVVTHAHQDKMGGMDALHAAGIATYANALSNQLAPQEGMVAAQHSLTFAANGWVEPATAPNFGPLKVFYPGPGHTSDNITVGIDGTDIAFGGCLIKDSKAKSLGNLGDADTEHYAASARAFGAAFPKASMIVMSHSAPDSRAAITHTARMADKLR
# Assay remarks: Steady-state kinetics of antibiotic hydrolysis with inhibitor
# Assay type: biochemical
# Experimental context: imipenem, inhibitor concentration as per IC50
# Method: The enzyme kinetics parameters (Km, and kcat) for all six proteins/enzymes in combination with different antibiotics (cefotaxime, imipenem, and meropenem), were calculated. […] The steady-state kinetics of all six proteins were determined using the antibiotics:imipenem (Δε295 = −11,500 M^−1 cm^−1), meropenem (Δε297 = −10,940 M^−1 cm^−1), and cefotaxime (Δε264 = −27,250 M^−1 cm^−1). […]
Please state the figure in μΜ; there is no need to write the unit.

Below, each entry is followed by its recorded Km or Ki result.
Request: Report Km or Ki on NDM-1 (Klebsiella pneumoniae, UniProt C7C422) for this entry: NC(=O)[C@@H]1CC[C@@H]2CN1C(=O)N2OS(=O)(=O)O [Avibactam, reference compound]
Result: 615.5

Request: Report Km or Ki on NDM-1 (Klebsiella pneumoniae, UniProt C7C422) for this entry: `O=C(c1ccccc1)C1CCN(C(=O)CN2C(=O)c3ccccc3C2=O)CC1`
Result: 995.4

Request: Report Km or Ki on NDM-1 (Klebsiella pneumoniae, UniProt C7C422) for this entry: `O=C(CN1C(=O)c2ccccc2S1(=O)=O)c1ccc(O)c(O)c1`
Result: 258.7

Switching to the query record.
Request: Report Km or Ki on NDM-1 (Klebsiella pneumoniae, UniProt C7C422) for this entry: `O=C(O)c1ccccc1C(=O)N1CCN(c2nc(-c3ccccc3)ns2)CC1`
Result: 301.3

###

# Tgt: NDM-1 (Klebsiella pneumoniae, UniProt C7C422)
# Construct: made in house; host or cells: E. coli (DH5 and BL21(DE3) named)
# Assay remarks: Steady-state kinetics of antibiotic hydrolysis with inhibitor
# Assay type: biochemical
# Experimental context: meropenem, inhibitor concentration as per IC50
Observed property: kcat (S^−1)
Please state the figure in S^−1; there is no need to write the unit.

Request: Answer with the recorded kcat for the compound listed here: O=C(c1ccccc1)C1CCN(C(=O)CN2C(=O)c3ccccc3C2=O)CC1 [D2148]
Result: 9.201

Request: Answer with the recorded kcat for the compound listed here: O=C(CN1C(=O)c2ccccc2S1(=O)=O)c1ccc(O)c(O)c1 [D63]
Result: 9.282

Request: Answer with the recorded kcat for the compound listed here: NC(=O)[C@@H]1CC[C@@H]2CN1C(=O)N2OS(=O)(=O)O [Avibactam, reference compound]
Result: 1.268

***
Request: Answer with the recorded kcat for the compound listed here: O=C(O)c1ccccc1C(=O)N1CCN(c2nc(-c3ccccc3)ns2)CC1 [D2573]
Result: 14.59
